Assay: AUC in mouse at […], iv administered as cassette dose
Format: ADME, organism-based
Set-up: dose 0.25 mg/kg, route iv
Settings: in vivo
readout: AUC (ng·h/mL)
Response body: numeric value in ng·h/mL, unit text excluded.

I would be grateful if you could share the reported AUC for O=C(NCC(F)(F)F)[C@@H]1CCCCOc2cccc(c2)C[C@H](N2CCCC2=O)C(=O)N[C@@H](CCc2ccccc2)C(=O)N1 .
0.6

---

Assay: Kinetic solubility of compound in PBS at pH 6.8 incubated for 24 hrs by UPLC/MS analysis
Type: physicochemical
Details: read-out: Kinetic_solubility
readout: log10 solubility kinetic at 24 h (log10 of the value in µg/mL)
Please note: log10 values; quantity solubility kinetic at 24 h; unit µg/mL.

Dear colleague, I am looking for the recorded log10 solubility kinetic at 24 h of the following molecule: O=C1N[C@H](c2nnc(C(F)(F)F)[nH]2)CCCCOc2cccc(c2)C[C@H](N2CCCC2=O)C(=O)N[C@H]1CCc1ccccc1
0.30

// returns reported log10 solubility kinetic at 24 h for input O=C(NCC(F)F)[C@@H]1CCCCOc2cccc(c2)C[C@H](N2CCCC2=O)C(=O)N[C@@H](CCc2ccccc2)C(=O)N1
1.54

# log10 solubility kinetic at 24 h lookup, item O=C1N[C@H](c2nnc(C(F)(F)F)o2)CCCCOc2cccc(c2)C[C@H](N2CCCC2=O)C(=O)N[C@H]1CCc1ccccc1
0.79

Recorded log10 solubility kinetic at 24 h for O=C(NC1CCCC1)[C@@H]1CCCCOc2cccc(c2)CC2(COC2)C(=O)N[C@@H](CCN2CCOCC2)C(=O)N1 , please?
1.83

What does the record list as log10 solubility kinetic at 24 h for O=C(NC1CCCC1)[C@@H]1CCCCOc2cccc(c2)C[C@H](N2CCCC2=O)C(=O)N[C@@H](CCc2ccc(F)cc2)C(=O)N1 ?
1.23

Please look up its log10 solubility kinetic at 24 h: O=C(NC1CCCC1)[C@@H]1CCCCOc2cccc(c2)C[C@H](N2CCCC2=O)C(=O)N[C@@H](COc2ccccc2)C(=O)N1
1.30

If you can, please state the reported log10 solubility kinetic at 24 h value of O=C(NCC(F)(F)F)[C@@H]1CCCCOc2cccc(c2)C[C@H](N2CCCC2=O)C(=O)N[C@@H](CCc2ccccc2)C(=O)N1 .
1.88

What measured log10 solubility kinetic at 24 h goes with O=C(NCC1CC1)[C@@H]1CCCCOc2cccc(c2)C[C@H](N2CCCC2=O)C(=O)N[C@@H](CCc2ccccc2)C(=O)N1 ?
1.69

Look at this molecule and give its reported log10 solubility kinetic at 24 h. O=C(NC1CCCC1)[C@@H]1CCCCOc2cccc(c2)C[C@H](N2CCCC2=O)C(=O)N[C@@H](CCc2ccccc2)C(=O)N1
2.00

For O=C(NC1(C(F)(F)F)CC1)[C@@H]1CCCCOc2cccc(c2)C[C@H](N2CCCC2=O)C(=O)N[C@@H](CCc2ccccc2)C(=O)N1 , what is its reported log10 solubility kinetic at 24 h?
1.49

What value of log10 solubility kinetic at 24 h has been recorded for this entry: O=C(NCC(F)(F)F)[C@@H]1Cc2cccc(c2)Oc2cccc(c2)C[C@H](N2CCCC2=O)C(=O)N[C@@H](CCc2ccccc2)C(=O)N1
0.58

Form field: reported log10 solubility kinetic at 24 h of CC1(C)Cc2cccc(c2)OCCCC[C@@H](C(=O)NC2CCCC2)NC(=O)[C@H](CCN2CCOCC2)NC1=O
1.95

---

So I've got a bunch of compounds here, and I need their Papp A→B at 1 h, 10 µM values.
Tested on: human MDR1 (P-gp)
Assay: Apparent permeability across apical to basolateral side in pig LLC-PK1 cells expressing human MDR1 at 10 uM measured after 60 mins by LC/MS/MS analysis
Assay type: ADME, cell-based, Sus scrofa

Which Papp A→B at 1 h, 10 µM value belongs to O=C1N[C@H](c2nnc(C(F)(F)F)o2)CCCCOc2cccc(c2)C[C@H](N2CCCC2=O)C(=O)N[C@H]1CCc1ccccc1 ?
1.1 ×10⁻⁶ cm/s

Query (compound): O=C(NCC(F)F)[C@@H]1CCCCOc2cccc(c2)C[C@H](N2CCCC2=O)C(=O)N[C@@H](CCc2ccccc2)C(=O)N1 ; field requested: Papp A→B at 1 h, 10 µM
> 1.1 ×10⁻⁶ cm/s

Item under review: CC(=O)N[C@H]1Cc2cccc(c2)Oc2cccc(c2)C[C@@H](C(=O)NCC(F)(F)F)NC(=O)[C@H](CCc2ccccc2)NC1=O . Reported Papp A→B at 1 h, 10 µM?
> 0.077 ×10⁻⁶ cm/s

For the compound CC(=O)N[C@H]1Cc2cccc(c2)Oc2cccc(c2)C[C@@H](C(=O)NCc2ccc(C)cc2)NC(=O)[C@H](CCc2ccccc2)NC1=O , what Papp A→B at 1 h, 10 µM is on record?
> 3.4 ×10⁻⁶ cm/s

---

Experiment: Permeability of the compound in PRISMA HT buffer at pH 7.4 at 10 uM incubated for 3 hrs by PAMPA based LC/MS/MS analysis
Format: ADME
Settings: read-out: permeability
Exercise: for every item that follows, state its recorded Papp at 3 h, 10 µM.
Lab book: enter the figure in ×10⁻⁶ cm/s, no units written.

Query (compound): O=C(NCC(F)F)[C@@H]1CCCCOc2cccc(c2)C[C@H](N2CCCC2=O)C(=O)N[C@@H](CCc2ccccc2)C(=O)N1 ; field requested: Papp at 3 h, 10 µM
7.2

Any idea what its Papp at 3 h, 10 µM is? The compound is O=C(NC1CCCC1)[C@@H]1CCCCOc2cccc(c2)C[C@H](N2CCCC2=O)C(=O)N[C@@H](CCc2ccc(F)cc2)C(=O)N1
21.2

I have this compound here, CN(C)[C@H]1Cc2cccc(c2)OCCCC[C@@H](C(=O)NC2CCCC2)NC(=O)[C@H](CCN2CCOCC2)NC1=O , and I need its recorded Papp at 3 h, 10 µM.
2

---

System: human MDR1 (P-gp)
Test: Apparent permeability across apical to basolateral side in pig LLC-PK1 cells expressing human MDR1 at 10 uM measured after 60 mins by LC/MS/MS analysis
Format: ADME, cell-based, Sus scrofa
Could you label it rule met if measured Papp A→B at 1 h, 10 µM is 4 ×10⁻⁶ cm/s or higher, and rule not met otherwise?

Reported Papp A→B at 1 h, 10 µM at or above 4 ×10⁻⁶ cm/s? O=C(NCC(F)(F)F)[C@@H]1CCCCOc2cccc(c2)C[C@H](N2CCCC2=O)C(=O)N[C@@H](CCc2ccccc2)C(=O)N1
rule met

API: above_or_equal(metric=Papp A→B at 1 h, 10 µM, cutoff=4 ×10⁻⁶ cm/s) for item CN(C)[C@H]1Cc2cccc(c2)OCCCC[C@@H](C(=O)NC2CCCC2)NC(=O)[C@H](CCN2CCOCC2)NC1=O
rule not met

Can O=C(NC1(C(F)(F)F)CC1)[C@@H]1CCCCOc2cccc(c2)C[C@H](N2CCCC2=O)C(=O)N[C@@H](CCc2ccccc2)C(=O)N1 be said to have Papp A→B at 1 h, 10 µM at or above 4 ×10⁻⁶ cm/s?
rule met

Test whether the molecule O=C(NCC1CC1)[C@@H]1CCCCOc2cccc(c2)C[C@H](N2CCCC2=O)C(=O)N[C@@H](CCc2ccccc2)C(=O)N1 records Papp A→B at 1 h, 10 µM of 4 ×10⁻⁶ cm/s or higher.
rule met

Please tell me: is the molecule O=C(NC1CCCC1)[C@@H]1CCCCOc2cccc(c2)C[C@H](N2CCCC2=O)C(=O)N[C@@H](CCc2ccc(F)cc2)C(=O)N1 at or over 4 ×10⁻⁶ cm/s in terms of Papp A→B at 1 h, 10 µM?
rule met

Item O=C(NC1CCCC1)[C@@H]1CCCCOc2cccc(c2)C[C@H](N2CCCC2=O)C(=O)N[C@@H](CCc2ccccc2)C(=O)N1 with Papp A→B at 1 h, 10 µM of 4 ×10⁻⁶ cm/s or above?
rule met

Test whether the molecule CC1(C)Cc2cccc(c2)OCCCC[C@@H](C(=O)NC2CCCC2)NC(=O)[C@H](CCN2CCOCC2)NC1=O records Papp A→B at 1 h, 10 µM of 4 ×10⁻⁶ cm/s or higher.
rule not met

---

Experiment: Permeability of the compound in PRISMA HT buffer at pH 7.4 at 10 uM incubated for 3 hrs by PAMPA based LC/MS/MS analysis
Format: ADME
Details: read-out: permeability
readout: Papp at 3 h, 10 µM (×10⁻⁶ cm/s)
// note: answer is a bare numeric in ×10⁻⁶ cm/s

Query (compound): O=C(NC1CCCC1)[C@@H]1CCCCOc2cccc(c2)CC2(COC2)C(=O)N[C@@H](CCN2CCOCC2)C(=O)N1 ; field requested: Papp at 3 h, 10 µM
8.9

Requested read-out: Papp at 3 h, 10 µM. Entry: O=C(NC1CCCC1)[C@@H]1CCCCOc2cccc(c2)C[C@H](N2CCCC2=O)C(=O)N[C@@H](COc2ccccc2)C(=O)N1
20.8

Recorded Papp at 3 h, 10 µM for O=C1N[C@H](c2nnc(C(F)(F)F)[nH]2)CCCCOc2cccc(c2)C[C@H](N2CCCC2=O)C(=O)N[C@H]1CCc1ccccc1 , please?
8.2

Which measured Papp at 3 h, 10 µM value corresponds to O=C1N[C@H](c2nnc(C(F)(F)F)o2)CCCCOc2cccc(c2)C[C@H](N2CCCC2=O)C(=O)N[C@H]1CCc1ccccc1 ?
16

What Papp at 3 h, 10 µM value was documented for this compound, O=C(NCC(F)(F)F)[C@@H]1CCCCOc2cccc(c2)C[C@H](N2CCCC2=O)C(=O)N[C@@H](CCc2ccccc2)C(=O)N1 ?
18.7

Fill in the blank: the reported Papp at 3 h, 10 µM of O=C(NCC(F)(F)F)[C@@H]1COCCOc2cccc(c2)C[C@H](N2CCCC2=O)C(=O)N[C@@H](CCc2ccccc2)C(=O)N1 is ____.
12

Report Papp at 3 h, 10 µM for CC(=O)N[C@H]1Cc2cccc(c2)Oc2cccc(c2)C[C@@H](C(=O)NCc2ccc(C)cc2)NC(=O)[C@H](CCc2ccccc2)NC1=O please.
2.2

Consider the compound shown here: O=C(NC1CCCC1)[C@@H]1CCCCOc2cccc(c2)C[C@H](N2CCCC2=O)C(=O)N[C@@H](CCc2ccccc2)C(=O)N1 What is its recorded Papp at 3 h, 10 µM?
15.1

Dear colleague, I am looking for the recorded Papp at 3 h, 10 µM of the following compound: O=C(NC1CCCC1)[C@@H]1CCCCOc2cccc(c2)C[C@H](N2CCCC2=O)C(=O)N[C@@H](CCN2CCC(F)(F)CC2)C(=O)N1
13.3

Which Papp at 3 h, 10 µM reading was recorded for the compound O=C(NC1(C(F)(F)F)CC1)[C@@H]1CCCCOc2cccc(c2)C[C@H](N2CCCC2=O)C(=O)N[C@@H](CCc2ccccc2)C(=O)N1 ?
14.5

Give the measured Papp at 3 h, 10 µM of CC1(C)Cc2cccc(c2)OCCCC[C@@H](C(=O)NC2CCCC2)NC(=O)[C@H](CCN2CCOCC2)NC1=O .
26.9

What Papp at 3 h, 10 µM value was documented for this compound, O=C(NCC1CC1)[C@@H]1CCCCOc2cccc(c2)C[C@H](N2CCCC2=O)C(=O)N[C@@H](CCc2ccccc2)C(=O)N1 ?
10.3

Which Papp at 3 h, 10 µM value is on record for Cn1cc(CNC(=O)[C@@H]2CCCCOc3cccc(c3)C[C@H](N3CCCC3=O)C(=O)N[C@@H](CCc3ccccc3)C(=O)N2)cn1 ?
1.1

Given the compound O=C(NC1CCCC1)[C@@H]1CCCCOc2cccc(c2)C[C@H](N2CCCC2=O)C(=O)N[C@@H](CCN2CCOCC2)C(=O)N1 , what is its reported Papp at 3 h, 10 µM?
1.5
